A collection of compounds and their measured fold change in fluorescence relative to zaprinast alone
Tested on: GCaMP5-expressing T. gondii
Construct: whole extracellular parasites expressing GCaMP5 Ca2+ sensor
Parameters: species or system GCaMP5-expressing Toxoplasma gondii, extracellular; GCaMP5 fluorescence (cytosolic Ca2+) after 100 uM zaprinast in compound-pretreated extracellular parasites, background-subtracted, relative to zaprinast alone
Conditions: 100 uM zaprinast stimulation; 10 min pretreatment; mean of two replicates; 0.23 h
Just the number, please, no unit after it.

Solved entries (count: 5):
- COMPOUND: "COc1ccc(NC(=O)c2ccc(-c3cc(-c4nnc(C)o4)ccc3C)cc2)cc1 [GW595885X]"
  MEASURED TARGET: "GCaMP5-expressing T. gondii"
  REPORTED VALUE: 1.221
- COMPOUND: "Nc1nc(-c2nccs2)c(-c2ccnc3ccccc23)s1 [GW693542X]"
  MEASURED TARGET: "GCaMP5-expressing T. gondii"
  REPORTED VALUE: 0.8815
- COMPOUND: "CC(C)NCC(Cc1ccccc1)NC(=O)c1cc(Br)c(-c2ccnc3[nH]ccc23)s1 (centres unmarked) [GSK1383281A]"
  MEASURED TARGET: "GCaMP5-expressing T. gondii"
  REPORTED VALUE: 1.049
- COMPOUND: "O=C(Nc1n[nH]c2nc(-c3ccco3)c(Br)cc12)C1CCN(Cc2ccccc2)C1 (centres unmarked) [SB-742034-AC]"
  MEASURED TARGET: "GCaMP5-expressing T. gondii"
  REPORTED VALUE: 0.9039
- COMPOUND: "COc1cc2ncn(-c3cc(OCc4ccccc4C(F)(F)F)c(C(N)=O)s3)c2cc1OC [GW843682X]"
  MEASURED TARGET: "GCaMP5-expressing T. gondii"
  REPORTED VALUE: 1.213

Give reported fold change in fluorescence relative to zaprinast alone for Clc1cccc(-c2nc(Nc3ccncc3)c3ccccc3n2)c1 [GW873004X] (GCaMP5-expressing T. gondii)
1.301

Tell me fold change in fluorescence relative to zaprinast alone of Fc1ccc(-c2c(-c3ccncc3)nc3n2CCS3)cc1 [SKF-86055] when tested on GCaMP5-expressing T. gondii.
1.285

Check GCaMP5-expressing T. gondii data and give fold change in fluorescence relative to zaprinast alone for CCNc1nccc(-c2c(-c3ccc(F)cc3)ncn2C2CCN(C)CC2)n1 [SB-226605] .
0.6067

// fetch fold change in fluorescence relative to zaprinast alone for Cc1ccc(NC(=O)Nc2cccc(Cl)c2)cc1-c1ccc(C(=O)Nc2ccncc2)cc1 [GSK1398468A] ; system: GCaMP5-expressing T. gondii
0.4262

Tell me fold change in fluorescence relative to zaprinast alone of CN(C)CCNS(=O)(=O)c1ccc(-c2ccnc3[nH]ccc23)cc1 [GSK977620A] when tested on GCaMP5-expressing T. gondii.
1.218

Send back GCaMP5-expressing T. gondii fold change in fluorescence relative to zaprinast alone of Cc1ccc(C(=O)NC2CCCC2)cc1-c1ccc(C(=O)NCC2CC2)cc1 [GW800172X] only.
1.109

Tell me fold change in fluorescence relative to zaprinast alone of Fc1ccc(-c2nn3c(OCC(F)(F)F)cccc3c2-c2ccncc2)cc1 [GW514784X] when tested on GCaMP5-expressing T. gondii.
0.04564

State recorded fold change in fluorescence relative to zaprinast alone with GCaMP5-expressing T. gondii, entry O=C1NC(=O)C(c2cccc(Cl)c2)=C1Nc1ccc(O)c(Cl)c1 [SB-409514] , no comment.
1.132
